ASSAY_SYSTEM: T1, TraIΔN308 (helicase domain) (Escherichia coli plasmid R1, UniProt Q6TDU5 309-1756, del1-308)
T1 sequence: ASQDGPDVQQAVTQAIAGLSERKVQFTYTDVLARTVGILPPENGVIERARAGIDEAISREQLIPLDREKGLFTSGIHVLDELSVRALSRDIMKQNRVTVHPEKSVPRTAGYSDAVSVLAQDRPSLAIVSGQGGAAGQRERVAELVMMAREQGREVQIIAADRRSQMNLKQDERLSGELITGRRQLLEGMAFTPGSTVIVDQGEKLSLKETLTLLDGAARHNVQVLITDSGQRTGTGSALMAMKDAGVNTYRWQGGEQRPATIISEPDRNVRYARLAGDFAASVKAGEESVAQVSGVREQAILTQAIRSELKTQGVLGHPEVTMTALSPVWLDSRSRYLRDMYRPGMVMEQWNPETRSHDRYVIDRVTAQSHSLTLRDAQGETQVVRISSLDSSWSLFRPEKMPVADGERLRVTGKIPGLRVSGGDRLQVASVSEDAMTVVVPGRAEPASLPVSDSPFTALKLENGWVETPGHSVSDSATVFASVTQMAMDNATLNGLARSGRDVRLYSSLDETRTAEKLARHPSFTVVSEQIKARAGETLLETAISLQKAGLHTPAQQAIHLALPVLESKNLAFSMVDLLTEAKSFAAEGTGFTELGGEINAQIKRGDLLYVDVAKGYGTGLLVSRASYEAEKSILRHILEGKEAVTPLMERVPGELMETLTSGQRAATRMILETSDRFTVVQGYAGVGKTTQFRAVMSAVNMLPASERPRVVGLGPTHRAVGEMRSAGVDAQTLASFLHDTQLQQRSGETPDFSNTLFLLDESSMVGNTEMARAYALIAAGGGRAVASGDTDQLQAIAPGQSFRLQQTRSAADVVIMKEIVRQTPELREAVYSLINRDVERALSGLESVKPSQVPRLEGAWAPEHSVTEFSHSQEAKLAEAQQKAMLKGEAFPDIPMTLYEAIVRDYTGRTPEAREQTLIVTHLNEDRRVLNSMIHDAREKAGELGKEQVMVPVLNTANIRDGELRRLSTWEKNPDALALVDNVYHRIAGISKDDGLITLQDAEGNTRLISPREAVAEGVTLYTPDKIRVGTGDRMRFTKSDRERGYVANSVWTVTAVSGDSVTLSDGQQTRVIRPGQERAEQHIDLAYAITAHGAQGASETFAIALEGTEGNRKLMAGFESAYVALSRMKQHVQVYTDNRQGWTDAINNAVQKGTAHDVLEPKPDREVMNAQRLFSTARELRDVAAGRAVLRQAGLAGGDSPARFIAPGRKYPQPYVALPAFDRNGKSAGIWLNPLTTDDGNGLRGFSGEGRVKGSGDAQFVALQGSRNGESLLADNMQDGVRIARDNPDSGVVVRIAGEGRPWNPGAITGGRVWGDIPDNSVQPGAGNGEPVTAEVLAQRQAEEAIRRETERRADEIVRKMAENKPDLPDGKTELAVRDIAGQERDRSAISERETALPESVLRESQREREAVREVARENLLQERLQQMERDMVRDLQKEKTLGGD
RUN_DESCRIPTION: fluorescence intensity titration; unit not printed with value; nM from titration range; EMSA: 10 mM Tris-HCl pH 7.5, 50 mM NaCl, 0.005% NP-40, 1 mM DTT, 1 mM EDTA, 25 C, 20 min (DNA 20 nM in Methods, 4 nM in Fig 5 legend); fluorescence: 20 mM Tris-HCl pH 7.5, 100 mM NaCl, 1 mM EDTA, 25 C, 4 nM oriT17*, 0-100 nM TraI
TEST_CONDITIONS: protein: recombinant; label: 3'-TAMRA
ENDPOINT: pKd
Convention used: pKd is expressed as -log10 of the molar concentration.

Please give measured pKd of the following entry: TTTGCGTGGGGTGTGGT (ssDNA) [oriT17*]
7.08

Origin of measurements: paper PMC4949242
